# systemTested: Proteasome
# assayInfo: Inhibitory activity was evaluated against chymotrypsin-like enzyme
# Format: subcellular
Residues, ends and D or L forms follow the SMILES beside them.
In this section we review reported pIC50 values for a set of compounds.
Note: pIC50 values are expressed as the negative base-10 logarithm of concentration in M.

compound	systemTested	pIC50
CC(C)C[C@H](NC(=O)[C@H](CO)NC(=O)[C@@H](NC(=O)C1=CCCNC1)C(C)C)C(=O)NCc1ccccc1	Proteasome	6.28
CC(C)C[C@H](NC(=O)[C@H](CO)NC(=O)[C@@H](NC(=O)OCC1c2ccccc2-c2ccccc21)C(C)C)C(=O)NCc1ccccc1 (HELM PEPTIDE1{[O=C(OCC1c2ccccc2-c2ccccc21)[*:2]].V.S.L.[c1ccc(CN[*:1])cc1]}$$$$V2.0)	Proteasome	5.23
CC(C)C[C@H](NC(=O)[C@H](CO)NC(=O)[C@H](Cc1ccccc1)NC(=O)OCc1ccccc1)C(=O)NCc1ccccc1	Proteasome	5.66

Continue with the next compound.
Query: Item under review: CC(C)C[C@H](NC(=O)OCc1ccccc1)C(=O)N[C@@H](CC(C)C)C(=O)N[C@@H](CC(C)C)C(=O)NCc1ccccc1 (HELM PEPTIDE1{[O=C(OCc1ccccc1)[*:2]].L.L.L.[c1ccc(CN[*:1])cc1]}$$$$V2.0) . Reported pIC50?
Response: 5.02
